# TESTED ON: BIR3 domain of XIAP (Homo sapiens)
# Construct: Recombinant XIAP-BIR3 (residues 238-358); GST (N, cleaved yes); made in house; host or cells: E. coli
# Sequence (P98170 238-358): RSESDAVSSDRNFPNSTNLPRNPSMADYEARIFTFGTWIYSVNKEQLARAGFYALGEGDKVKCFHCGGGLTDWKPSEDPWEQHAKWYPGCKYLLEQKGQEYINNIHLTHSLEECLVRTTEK
# ASSAY SUMMARY: Fluorescence displacement assay: AVPC-badan displaced from BIR3 by test tetrapeptide (typical assay, Tables 1 and 2)
# Format: binding, mammalian
# EXPERIMENTAL CONTEXT: emission intensity of AVPC-badan with BIR3 and test tetrapeptide, excitation 387 nm; lower = more dye displaced
Non-standard residues stand in square brackets, D forms with d. Residues, ends and D or L forms follow the SMILES beside them. ξ: configuration not given here. ξAbu = CCC(N)C(=O)O
Label criterion met when Intensity (470 nm) is strictly below 40000; otherwise label criterion not met.

# count of solved cases: 3
COMPOUND	ASSIGNED LABEL
CC[C@H](C)[C@H](NC(=O)[C@@H]1CCCN1C(=O)[C@H](CCCNC(=N)N)NC(=O)[C@H](C)N)C(N)=O [ARPI]	criterion met
CC[C@H](C)[C@H](NC(=O)[C@@H]1CCCN1C(=O)[C@@H](NC(=O)[C@H](C)N)[C@@H](C)CC)C(N)=O [AIPI] (H-AIPI-NH2; N-terminus and C-terminus assumed)	criterion not met
CC[C@H](C)[C@H](NC(=O)[C@@H]1CCCN1C(=O)[C@H](CC(C)C)NC(=O)[C@H](C)N)C(N)=O [ALPI] (H-ALPI-NH2; N-terminus and C-terminus assumed)	criterion met

Determine if CCC(N)C(=O)N[C@H](C(=O)N1CCC[C@H]1C(=O)N[C@H](C(N)=O)[C@@H](C)CC)C(C)C (stereo partly shown) [AbuVPI] (H-[ξAbu]VPI-NH2; N-terminus and C-terminus assumed) shows Intensity (470 nm) strictly lower than 40000.
criterion met

Determine if CC(C)[C@H](NC(=O)[C@H](C)N)C(=O)N1CCC[C@H]1C(=O)N[C@@H](Cc1c[nH]c2ccccc12)C(N)=O [AVPW] (H-AVPW-NH2; N-terminus and C-terminus assumed) shows Intensity (470 nm) strictly lower than 40000.
criterion met

Determine if CC[C@H](C)[C@H](NC(=O)[C@@H]1CCCN1C(=O)[C@H](Cc1c[nH]cn1)NC(=O)[C@H](C)N)C(N)=O [AHPI] (H-AHPI-NH2; N-terminus and C-terminus assumed) shows Intensity (470 nm) strictly lower than 40000.
criterion not met
